The reported numbers originate from ChEMBL document CHEMBL4765319.

# assay_system: Cyclin-dependent kinase 5/CDK5 activator 1 (Homo sapiens) (UniProt Q00535+Q15078)
# Sequence (Q00535 whole entry): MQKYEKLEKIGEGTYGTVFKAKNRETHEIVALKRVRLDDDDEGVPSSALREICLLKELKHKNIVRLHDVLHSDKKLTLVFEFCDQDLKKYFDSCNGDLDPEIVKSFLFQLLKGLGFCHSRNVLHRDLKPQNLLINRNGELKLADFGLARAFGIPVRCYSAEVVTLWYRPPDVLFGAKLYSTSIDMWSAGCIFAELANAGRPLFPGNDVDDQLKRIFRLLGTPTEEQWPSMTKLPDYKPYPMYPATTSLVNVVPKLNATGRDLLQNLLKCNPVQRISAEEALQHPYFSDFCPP
# Sequence (Q15078 99-307 partner limits assumed): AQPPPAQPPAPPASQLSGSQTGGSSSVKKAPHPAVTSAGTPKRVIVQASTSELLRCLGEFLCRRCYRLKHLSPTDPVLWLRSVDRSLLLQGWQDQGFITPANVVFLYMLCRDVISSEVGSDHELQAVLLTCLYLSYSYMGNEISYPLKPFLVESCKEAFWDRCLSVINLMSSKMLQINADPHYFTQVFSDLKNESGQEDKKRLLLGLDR
# experiment: Inhibition of human CDK5/p25 assessed as residual activity at 1 uM in presence of ATP by ADP-glo luminescent assay relative to control
# Format: protein-complex assay
Lab note: compare Activity against 40%. Equal or greater, write YES. Smaller, write NO.

CN1CC=C(c2c(O)cc(O)c3c(=O)cc(-c4ccc(Sc5nc6ccccc6[nH]5)cc4Cl)oc23)CC1 : YES
CN1CC=C(c2c(O)cc(O)c3c(=O)cc(-c4ccc(Sc5nc(-c6ccccc6)c[nH]5)cc4)oc23)CC1 : NO
CN1CC=C(c2c(O)cc(O)c3c(=O)cc(-c4ccc(Sc5nc6ccccc6n5C)cc4Cl)oc23)CC1 : YES
CN1CC=C(c2c(O)cc(O)c3c(=O)cc(-c4ccc(Sc5nc6ccccc6[nH]5)cc4)oc23)CC1 : NO

Then there is this compound:
*Q* Reported Activity reaches at least 40% for CN1CC[C@H](c2c(O)cc(O)c3c(=O)cc(-c4ccccc4Cl)oc23)[C@H](O)C1 [ALVOCIDIB] ?
*A* NO

* * *

# Organism: Sus scrofa
# experiment: Inhibition of porcine GSK3alpha/beta assessed as residual activity at 10 uM in presence of ATP by ADP-glo luminescent assay relative to control
readout: Activity (%)
Your answer should be a plain number; it is taken to be in %.

Worked examples, 3 compounds total:
CN1CC=C(c2c(O)cc(O)c3c(=O)cc(-c4ccc(Sc5nc6ccccc6n5C)cc4)oc23)CC1 : 8
CN1CC=C(c2c(O)cc(O)c3c(=O)cc(-c4ccc(Sc5nc6ccccc6[nH]5)cc4Cl)oc23)CC1 : 4
CN1CC=C(c2c(O)cc(O)c3c(=O)cc(-c4ccc(Sc5nc6ccccc6n5C)cc4Cl)oc23)CC1 : 10

*Q* I would be grateful if you could share the reported Activity for `CN1CC=C(c2c(O)cc(O)c3c(=O)cc(-c4ccc(Sc5nc6ccccc6[nH]5)cc4)oc23)CC1` .
*A* 11

*Q* // repeat for `CN1CC=C(c2c(O)cc(O)c3c(=O)cc(-c4ccc(Sc5nc(-c6ccccc6)c[nH]5)cc4)oc23)CC1` and report
*A* 11

*Q* // repeat for `CN1CC[C@H](c2c(O)cc(O)c3c(=O)cc(-c4ccccc4Cl)oc23)[C@H](O)C1` and report
*A* 16

* * *

# Test system: HCT-116
# experiment: Antiproliferative activity against human HCT-116 cells assessed as reduction in cell viability incubated for 72 hrs by CellTiter-Blue fluorescence assay
# details: HCT-116, 72 h
readout: pIC50
pIC50 (log units): -log10 of the concentration in mol/L.

CN1CC=C(c2c(O)cc(O)c3c(=O)cc(-c4ccc(Sc5nc6ccccc6[nH]5)cc4)oc23)CC1 : 6.53

*Q* I would be grateful if you could share the reported pIC50 for `CN1CC=C(c2c(O)cc(O)c3c(=O)cc(-c4ccc(Sc5nc6ccccc6n5C)cc4Cl)oc23)CC1` .
*A* 7.09

*Q* // repeat for `CN1CC=C(c2c(O)cc(O)c3c(=O)cc(-c4ccc(Sc5nc(-c6ccccc6)c[nH]5)cc4)oc23)CC1` and report
*A* 6.76

*Q* // repeat for `CN1CC=C(c2c(O)cc(O)c3c(=O)cc(-c4ccc(Sc5nc6ccccc6[nH]5)cc4Cl)oc23)CC1` and report
*A* 6.77

*Q* // repeat for `CN1CC=C(c2c(O)cc(O)c3c(=O)cc(-c4ccc(Sc5nc6ccccc6n5C)cc4)oc23)CC1` and report
*A* 6.66

* * *

# System: NCI-N87
# experiment: Antiproliferative activity against human NCI-N87 cells assessed as reduction in cell viability incubated for 72 hrs by CellTiter-Blue fluorescence assay
# details: NCI-N87, 72 h
Recorded log10 of IC50, one value per entry.
Values below are the log10 of the recorded IC50, with nM as the unit.

CN1CC[C@H](c2c(O)cc(O)c3c(=O)cc(-c4ccccc4Cl)oc23)[C@H](O)C1 [ALVOCIDIB] : 2.05
CN1CC=C(c2c(O)cc(O)c3c(=O)cc(-c4ccc(Sc5nc6ccccc6n5C)cc4)oc23)CC1 : 2.59
CN1CC=C(c2c(O)cc(O)c3c(=O)cc(-c4ccc(Sc5nc6ccccc6[nH]5)cc4Cl)oc23)CC1 : 1.08
CN1CC=C(c2c(O)cc(O)c3c(=O)cc(-c4ccc(Sc5nc6ccccc6n5C)cc4Cl)oc23)CC1 : 1.69
CN1CC=C(c2c(O)cc(O)c3c(=O)cc(-c4ccc(Sc5nc(-c6ccccc6)c[nH]5)cc4)oc23)CC1 : 3.68

Please examine the following record next.
*Q* I would be grateful if you could share the reported log10 of IC50 for `CN1CC=C(c2c(O)cc(O)c3c(=O)cc(-c4ccc(Sc5nc6ccccc6[nH]5)cc4)oc23)CC1` .
*A* 2.26

* * *

# assay_system: CDK2/Cyclin A2 (Homo sapiens) (UniProt P24941+P20248)
# experiment: Inhibition of human CDK2/cyclin A assessed as residual activity at 1 uM in presence of ATP by ADP-glo luminescent assay relative to control
# Type: protein-complex assay
readout: Activity (%)
Your answer should be a plain number; it is taken to be in %.

Worked examples, 5 compounds total:
CN1CC[C@H](c2c(O)cc(O)c3c(=O)cc(-c4ccccc4Cl)oc23)[C@H](O)C1 : 26
CN1CC=C(c2c(O)cc(O)c3c(=O)cc(-c4ccc(Sc5nc6ccccc6[nH]5)cc4Cl)oc23)CC1 : 46
CN1CC=C(c2c(O)cc(O)c3c(=O)cc(-c4ccc(Sc5nc(-c6ccccc6)c[nH]5)cc4)oc23)CC1 : 33
CN1CC=C(c2c(O)cc(O)c3c(=O)cc(-c4ccc(Sc5nc6ccccc6[nH]5)cc4)oc23)CC1 : 35
CN1CC=C(c2c(O)cc(O)c3c(=O)cc(-c4ccc(Sc5nc6ccccc6n5C)cc4Cl)oc23)CC1 : 87

Please examine the following record next.
*Q* For CDK2/Cyclin A2 (Homo sapiens) (UniProt P24941+P20248), provide Activity of `CN1CC=C(c2c(O)cc(O)c3c(=O)cc(-c4ccc(Sc5nc6ccccc6n5C)cc4)oc23)CC1` please.
*A* 51

* * *

# Test system: Plasmodium falciparum
# experiment: Inhibition of Plasmodium falciparum GSK3 assessed as residual activity at 1 uM in presence of ATP by ADP-glo luminescent assay relative to control
readout: Activity (%)
Your answer should be a plain number; it is taken to be in %.

Worked examples, 2 compounds total:
CN1CC=C(c2c(O)cc(O)c3c(=O)cc(-c4ccc(Sc5nc6ccccc6[nH]5)cc4)oc23)CC1 : 85
CN1CC=C(c2c(O)cc(O)c3c(=O)cc(-c4ccc(Sc5nc6ccccc6n5C)cc4Cl)oc23)CC1 : 80

Please examine the following record next.
*Q* I would be grateful if you could share the reported Activity for `CN1CC=C(c2c(O)cc(O)c3c(=O)cc(-c4ccc(Sc5nc6ccccc6n5C)cc4)oc23)CC1` .
*A* 80

* * *

Recorded Activity, one value per entry.
# assay_system: CDK9/cyclin T1 (Homo sapiens) (UniProt O60563+P50750)
# experiment: Inhibition of human CDK9/cyclin T assessed as residual activity at 1 uM in presence of ATP by ADP-glo luminescent assay relative to control
# Type: protein-complex assay
Your answer should be a plain number; it is taken to be in %.

Worked examples, 4 compounds total:
CN1CC=C(c2c(O)cc(O)c3c(=O)cc(-c4ccc(Sc5nc(-c6ccccc6)c[nH]5)cc4)oc23)CC1 : 2
CN1CC=C(c2c(O)cc(O)c3c(=O)cc(-c4ccc(Sc5nc6ccccc6[nH]5)cc4Cl)oc23)CC1 : 2
CN1CC=C(c2c(O)cc(O)c3c(=O)cc(-c4ccc(Sc5nc6ccccc6n5C)cc4)oc23)CC1 : -2
CN1CC[C@H](c2c(O)cc(O)c3c(=O)cc(-c4ccccc4Cl)oc23)[C@H](O)C1 : 5

*Q* I would be grateful if you could share the reported Activity for `CN1CC=C(c2c(O)cc(O)c3c(=O)cc(-c4ccc(Sc5nc6ccccc6[nH]5)cc4)oc23)CC1` .
*A* 8

*Q* // repeat for `CN1CC=C(c2c(O)cc(O)c3c(=O)cc(-c4ccc(Sc5nc6ccccc6n5C)cc4Cl)oc23)CC1` and report
*A* 1

* * *

Recorded Activity, one value per entry.
# assay_system: Glycogen synthase kinase-3 beta (Homo sapiens)
# Sequence (P49841 whole entry, looked up): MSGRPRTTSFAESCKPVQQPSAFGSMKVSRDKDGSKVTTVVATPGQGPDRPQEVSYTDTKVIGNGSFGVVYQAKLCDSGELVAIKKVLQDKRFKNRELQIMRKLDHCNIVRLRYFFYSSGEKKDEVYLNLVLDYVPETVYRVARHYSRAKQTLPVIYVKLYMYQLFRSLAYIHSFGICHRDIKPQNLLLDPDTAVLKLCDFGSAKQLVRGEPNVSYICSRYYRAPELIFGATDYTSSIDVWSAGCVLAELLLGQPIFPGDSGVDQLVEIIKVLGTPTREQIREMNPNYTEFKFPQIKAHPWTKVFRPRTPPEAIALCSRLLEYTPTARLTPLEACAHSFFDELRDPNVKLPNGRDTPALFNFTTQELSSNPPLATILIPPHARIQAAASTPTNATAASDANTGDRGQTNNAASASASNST
# experiment: Inhibition of human GSK3beta assessed as residual activity at 10 uM in presence of ATP by ADP-glo luminescent assay relative to control
Your answer should be a plain number; it is taken to be in %.

CN1CC=C(c2c(O)cc(O)c3c(=O)cc(-c4ccc(Sc5nc(-c6ccccc6)c[nH]5)cc4)oc23)CC1 : 6
CN1CC=C(c2c(O)cc(O)c3c(=O)cc(-c4ccc(Sc5nc6ccccc6[nH]5)cc4)oc23)CC1 : -8
CN1CC=C(c2c(O)cc(O)c3c(=O)cc(-c4ccc(Sc5nc6ccccc6n5C)cc4Cl)oc23)CC1 : 2
CN1CC=C(c2c(O)cc(O)c3c(=O)cc(-c4ccc(Sc5nc6ccccc6n5C)cc4)oc23)CC1 : -3
CN1CC[C@H](c2c(O)cc(O)c3c(=O)cc(-c4ccccc4Cl)oc23)[C@H](O)C1 : 10

Please examine the following record next.
*Q* I would be grateful if you could share the reported Activity for `CN1CC=C(c2c(O)cc(O)c3c(=O)cc(-c4ccc(Sc5nc6ccccc6[nH]5)cc4Cl)oc23)CC1` .
*A* 4
